# Species on record: Homo sapiens
# EXPERIMENTAL DETAILS: Inhibition of glutathione S-transferase (unknown origin) using CDNB as substrate at 50 uM by spectrophotometric analysis relative to control
For each of the compounds below, state its inhibition.
State just the number; it will be interpreted in %.

Prompt: Look up inhibition: `O=c1c2cc(-c3ccccc3-c3nn[nH]n3)ccc2nc(-c2ccc(Cl)s2)n1CCc1ccc(Cl)cc1`
Completion: 90.8

Prompt: Fill blank: measured inhibition of the compound `NC(=O)c1cccc(-c2ccc3nc(-c4ccc(Cl)s4)n(Cc4ccc(Cl)cc4)c(=O)c3c2)c1` is ____.
Completion: 24.6

Prompt: Recorded inhibition for `O=c1c2cc(-c3ccccc3-c3nn[nH]n3)ccc2nc(-c2ccc(Cl)s2)n1Cc1ccc(Cl)cc1` , please?
Completion: 92.5

Prompt: Field request: inhibition | item: `O=c1c2cc(-c3ccccc3-c3nn[nH]n3)ccc2nc(-c2cccs2)n1Cc1ccc(Cl)cc1`
Completion: 89
